- system: μ-opioid receptor (Homo sapiens)
- Construct: expressed in transfected cells; host or cells: HEK-293
- Sequence (P35372 whole entry, species assumed): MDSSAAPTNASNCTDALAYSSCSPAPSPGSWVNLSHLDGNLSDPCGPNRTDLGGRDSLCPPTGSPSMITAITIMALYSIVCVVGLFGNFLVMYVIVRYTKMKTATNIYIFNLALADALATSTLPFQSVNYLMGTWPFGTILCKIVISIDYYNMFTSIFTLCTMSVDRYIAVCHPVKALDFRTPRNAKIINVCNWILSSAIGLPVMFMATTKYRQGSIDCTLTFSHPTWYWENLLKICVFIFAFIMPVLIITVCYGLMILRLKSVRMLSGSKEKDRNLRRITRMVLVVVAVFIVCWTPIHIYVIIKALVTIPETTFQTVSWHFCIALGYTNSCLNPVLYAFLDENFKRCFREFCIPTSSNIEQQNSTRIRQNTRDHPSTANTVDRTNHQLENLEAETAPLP
- experiment summary: μ-opioid receptor [35S]GTPγS functional assay
- Format: biochemical
- settings: maximal effect relative to DAMGO, HEK-293 cells
- Experimental: [^35S]GTPγS functional assays were conducted using freshly thawed μ-receptor membranes prepared in-house from a cell line expressing recombinant μ opioid receptor in a HEK-293, CHO or U-2 OS cell background, or purchased from a commercial source (Perkin Elmer, Shelton, Conn.; or DiscovRx, Fremont, Calif.). […] BetaScint scintillation cocktail (Perkin Elmer, Shelton, Conn.) was added (50 μl/well) and plates were counted using a Packard Top-Count for 1 min/well. […]
Decision: Emax compared against 50%; not below it gives Fulfilled, below it gives Not fulfilled.

INSERT INTO results (compound, class_label) VALUES
  ('CN1CC[C@]23CC(=O)NC[C@H]2[C@H]1Cc1ccc(O)cc13 [Compound 24]', 'Fulfilled'),
  ('COc1ccc(CN2C[C@H]3[C@H]4Cc5ccc(OC)cc5[C@@]3(CCN4C)CC2=O)cc1 [Compound 8]', 'Fulfilled'),
  ('CN1CC[C@]23CC(=O)N(Cc4ccccc4)C[C@H]2[C@H]1Cc1ccc(O)cc13 [Compound 28]', 'Fulfilled'),
  ('CN1CC[C@]23CC(=O)N(CC4CC4)C[C@H]2[C@H]1Cc1ccc(O)cc13 [Compound 26]', 'Fulfilled'),
  ('CC(C)C(=O)N1CC[C@]23CCN(C)[C@H](Cc4ccc(O)cc42)[C@@H]3C1 [Compound 30]', 'Not fulfilled');

Please tell me: is the compound CN1CC[C@]23CCN(CC4CC4)C[C@H]2[C@H]1Cc1ccc(O)cc13 [Compound 27] at or over 50% in terms of Emax? Not fulfilled

Every entry's value here was drawn from patent US10202382B2.
